- Measured Target: T1, Gadd45β/MKK7 complex (biotin-hGadd45β with coated GST-MKK7, ELISA format) (human, UniProt O75293 1-160; O14733 1-419, biotinylated (sites not given))
- T1 construct: not shown: glutathione S-transferase (GST) fusion partner
- T1 sequence (looked up) 1: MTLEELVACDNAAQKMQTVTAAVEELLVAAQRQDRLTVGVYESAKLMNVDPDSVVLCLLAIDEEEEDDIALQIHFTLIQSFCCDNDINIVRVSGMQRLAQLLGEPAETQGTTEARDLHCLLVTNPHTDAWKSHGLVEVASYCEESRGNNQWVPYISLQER
- T1 sequence (looked up) 2: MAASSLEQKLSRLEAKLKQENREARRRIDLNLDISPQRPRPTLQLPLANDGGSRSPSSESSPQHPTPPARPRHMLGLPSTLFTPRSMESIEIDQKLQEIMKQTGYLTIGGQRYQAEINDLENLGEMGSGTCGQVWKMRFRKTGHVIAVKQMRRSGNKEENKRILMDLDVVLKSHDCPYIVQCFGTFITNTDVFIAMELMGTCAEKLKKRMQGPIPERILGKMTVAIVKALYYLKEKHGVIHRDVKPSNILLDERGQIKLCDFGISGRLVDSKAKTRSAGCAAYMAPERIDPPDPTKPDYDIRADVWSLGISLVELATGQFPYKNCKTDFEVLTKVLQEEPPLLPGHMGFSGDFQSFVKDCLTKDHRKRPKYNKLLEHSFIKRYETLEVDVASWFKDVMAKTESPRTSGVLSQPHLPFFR
- Assay Overview: competition ELISA; coated GST-MKK7, biotin-hGadd45β; single dose
* marks the point of attachment. Cbz = O=C(OCc1ccccc1)*; Myr = myristyl
Grouping by measured % Inhibition of Gadd45β-MKK7 binding is done with the following cut points: A (below 30%), B (30% to below 80%), C (80% or more)

## Input Form: Item = Cbz-YDHF-NH2 (also called Z-LTP1) [Z-YDHF-NH2] ; Class = ?
## Output C

## Input State the class of the binder shown: Myr-YDHF-NH2 [Myr-YDHF-NH2]
## Output A

All figures here come from patent US20120277164A1.
